# System: OVCAR4
# Method description: Euclidean distance of Cell Painting phenotypic profile (signed KS, 77 features) to DMSO centroid (dimensionless distance); 5 or 10 uM (library dependent); higher = stronger phenotypic change vs DMSO (phenoactivity)
# Condition set: 48 h
Measure: Euclidean distance

{"columns": ["Compound", "Measured number"],
 "data": [
  ["CCCCOC(=O)c1ccccc1Nc1cccc(C(F)(F)F)c1 [Ufenamate]", 1.83],
  ["CN1CC2c3ccccc3Oc3ccc(Cl)cc3C2C1 (stereo not given) [Asenapine]", 0.94],
  ["Cn1c(Cn2ccc(C(F)(F)F)c(Oc3cc(Cl)cc(C#N)c3)c2=O)n[nH]c1=O [Doravirine (MK-1439)]", 0.914],
  ["Cc1ccc(C(=O)c2ccc(CC(=O)O)n2C)cc1 [Tolmetin]", 0.922],
  ["O=C1C(=O)N(Cc2ccc(Cl)c(Cl)c2)c2ccccc21 [Apoptosis Activator 2]", 1.11]
]}

* * *

# Test system: HEPG2
# Method description: Euclidean distance of Cell Painting phenotypic profile (signed KS, 77 features) to DMSO centroid (dimensionless distance); 5 or 10 uM (library dependent); higher = stronger phenotypic change vs DMSO (phenoactivity)
# Condition set: 48 h
Structures can show the parent of a compound that is named as a salt.

{"columns": ["Compound", "Euclidean distance"],
 "data": [
  ["O=C(O)CC[C@H]1CC[C@@](c2cc(F)ccc2F)(S(=O)(=O)c2ccc(Cl)cc2)CC1", 1.76],
  ["COc1cccc(CCc2ccccc2OCC(CN(C)C)OC(=O)CCC(=O)O)c1 (centres undefined) [Sarpogrelate hydrochloride]", 0.99],
  ["COc1nc2ccc(Br)cc2cc1[C@@H](c1ccccc1)[C@@](O)(CCN(C)C)c1cccc2ccccc12", 0.496],
  ["C[C@H]1O[C@H](O[C@H]2[C@H](O)[C@@H](O)[C@@H](O[C@H]3[C@H](O)[C@@H](O)C(O)O[C@@H]3CO)O[C@@H]2CO)[C@H](O)[C@@H](O)[C@@H]1N[C@H]1C=C(CO)[C@@H](O)[C@H](O)[C@H]1O (some centres undefined)", 0.847],
  ["COCCNCCc1cccc(Nc2ncc3c(n2)-c2ccccc2[C@H](c2ccccc2F)C3)c1 [Derazantinib(ARQ-087)]", 4.56],
  ["OCCN1CCN(CC/C=C2/c3ccccc3Sc3ccc(C(F)(F)F)cc32)CC1 [Flupenthixol dihydrochloride]", 2.68],
  ["Nc1ccc2cc3ccc(N)cc3nc2c1", 4.17],
  ["CC[C@H]1OC(=O)[C@H](C)[C@@H](O[C@H]2C[C@@](C)(OC)[C@@H](O)[C@H](C)O2)[C@H](C)[C@@H](O[C@@H]2O[C@H](C)C[C@H](N(C)C)[C@H]2O)[C@](C)(O)C[C@@H](C)[C@@H]2N[C@@H](COCCOC)O[C@H]([C@H]2C)[C@]1(C)O", 1.27],
  ["CCCN[C@H]1CCc2nc(N)sc2C1 [Pramipexole dihydrochloride]", 0.46],
  ["CO[C@@]12[C@H](COC(N)=O)C3=C(C(=O)C(C)=C(N)C3=O)N1C[C@@H]1N[C@@H]12", 3.46],
  ["COc1ccc([C@@H]2CC(=O)c3c(O)cc(O)cc3O2)cc1O", 1.37],
  ["CCOC(=O)O[C@]1(C(=O)OCCl)CC[C@H]2[C@@H]3CCC4=CC(=O)C=C[C@]4(C)[C@H]3[C@@H](O)C[C@@]21C [Loteprednol etabonate]", 0.658],
  ["COc1ccc2[nH]cc(CCNC(C)=O)c2c1", 0.681],
  ["OCCN1CCN(CCCN2c3ccccc3Sc3ccc(Cl)cc32)CC1", 2.4]
]}
